- measured on: endothiapepsin (EP) (Cryphonectria parasitica, UniProt P11838)
- Sequence (P11838 90-419): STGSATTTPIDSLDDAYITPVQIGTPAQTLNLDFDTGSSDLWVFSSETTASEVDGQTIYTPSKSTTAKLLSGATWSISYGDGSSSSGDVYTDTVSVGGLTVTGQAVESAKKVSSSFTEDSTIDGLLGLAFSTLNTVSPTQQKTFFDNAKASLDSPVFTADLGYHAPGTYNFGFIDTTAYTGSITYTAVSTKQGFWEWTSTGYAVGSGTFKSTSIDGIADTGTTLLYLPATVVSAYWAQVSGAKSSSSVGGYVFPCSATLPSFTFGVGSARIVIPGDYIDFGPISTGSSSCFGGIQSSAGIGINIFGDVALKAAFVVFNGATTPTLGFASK
- assay: Isothermal titration calorimetry (direct or SAP114-displacement titration) against EP
- Assay type: binding
- reported conditions: read-out: Kd determined by ITC
Consider the following compounds; for each one, report its pKd.
One number for each entry, as −log10 of the molar value.

Answered examples (7):
| compound | experimental value |
| --- | --- |
| NC1=NC(=O)c2ccccc21 [FU5-3] | 3.13 |
| Cc1noc(C)c1CN(C)Cc1cc2n(n1)CCN(c1cc(N)ncn1)C2 [FU58-1] | 3.35 |
| CSc1ccc(CN(CCO)Cc2cc(C)nn2C)cc1 [FU58-3] | 2.98 |
| N=C(N)SCc1ccc(CSC(=N)N)cc1 [FU290-1] | 5.14 |
| N=C(N)N/N=C1\N=C(N)c2ccccc21 [FU5-4] | 3.40 |
| CC(SC(=N)N)c1ccc(Cl)cc1 (centres unmarked) [FU290-2] | 3.80 |
| N=C1N=C(N)c2ccccc21 [FU5-2] | 3.01 |

Now, please, on to the next compound.
Q: Send back endothiapepsin (EP) (Cryphonectria parasitica, UniProt P11838) pKd of Oc1nc(-c2ccco2)ccc1CN(Cc1ccccn1)C1CC1 [FU66-1] only.
A: 3.80
